Hello, the source for this data is patent US20240400689A1, in case you need it.

- target under test: T1, Macaca fascicularis CD276 (Macaca fascicularis)
- T1 construct: whole, on cells; also called cynomolgus monkey CD276; cynoCD276
- method summary: FACS on CHO-S-cynoCD276 cells
Assignment: determine reported FACS MFI for the given binders.

Reference set, count: 3
15-G1-D1-E3 (antibody, V domains shown, mouse monoclonal antibody (hybridoma)) VH: QVQLQQPGAELVKPGTSVKLSCKASGYTFTSYWIHWVKQRPGQGLEWIGMIHPKSGTVDYNEKFKSKATLTADKSSNTAYMQLSSLTSEASVVYYCARGENYDYRPQFVYWGQGTLVTVSA VL: QLVLTQSSSASFSLGASAKLTCTLSSQHSTYTIEWYQQQPLKPPKYVMELKKDGSHRTGDGIPDRFSGSSSGADRYLSISNIQPEDEAIYICGVGDTIKEQFVYVFGGGTKVTVL = 99400
20-C5-D7-D3 (antibody, V domains shown, mouse monoclonal antibody (hybridoma)) VH: EVQLVESGGDLVKPGGSLKLSCAASGFTFRSYGMSWVRQTPDKRLEWVATISGGGNYTYYPDSVKGRFTISRDNAKNTLYLQMSSLKSEDTAMYYCARHEGLPLDYWGQGTTLTVSS VL: DIQMTQSPASLSASVGETVTITCRASENIYSYLAWYQQKQGKSPQLLVYNAKTLAEGVPSRFSGSGSGTQFSLKINSLQPEDFGNFYCQHHYGTPTWTFGGGTKLEIK = 13200
10-G6-C4-B2 (antibody, V domains shown, mouse monoclonal antibody (hybridoma)) VH: EVQLVESGGGLVQPGGSLRLSCATSGFTLSDYYMSWVRQPPGKAPEWLGFMRNKANGYTTEYSASVRGRFTISRDTSQSIIYLQMNTLRAEDGATYYCVRDRDGRPFAYWGQGTLVTVSA VL: DIVMTQSPSSLTVTAGEKVTMSCKSSQSLLNSINQKNFLTWYQQKPGQPPKLLIYWASTRESGVPDRFTGSGSGTDFTLTISSVQAEDLAIYYCQNDYTYPLTFGTGTKLELK = 4320

Please give FACS MFI for each item listed below.
1. 26-D2-D6-B12 (antibody, V domains shown, mouse monoclonal antibody (hybridoma)) VH: QIQLVQSGPELKKPGETVKISCKASGYIFRNYGMNWVKQAPGKGLKWMGWINSYTGKPTYVDDFKGRFAFSLETSASTAYLQINNLKNEDMATYFCARDDGYWYTMDYWGQGTSVTVSS VL: DVVMTQTPLSLPVSLGDQASISCRSSQSLVHSNGHTYLHWYLQKPGQSPKLLIYKVSNRFSGVPDRFSGSGSGTDFTLKISRVEAEDLGVYFCSQSTHVPWTFGGGTKLEIK
2. 9-E8-F9-C10 (antibody, V domains shown, mouse monoclonal antibody (hybridoma)) VH: EVQLQQSGAELVRPGTSVKISCKASGYAFSDYWLSWVKQRPGHGLEWIGDICPGSGNIYYNERFKDKVILTADRSSSTAYLQFSSLTSEDSVVYFCTRLITRVIDYWGQGTSVTVST VL: ENVLTQSPAIMSASPGEKVTMTCSASSSVNYMHWYQQKSSTSPKLWIYDTSKLSSGVPGRFSGSGSGNSYSLTISSMEAEDVATYYCFQGSGYPLTFGAGTKLELK

Result:
1. 63100
2. 5700
